- Assayed System: EZH2 (Homo sapiens)
- Sequence (Q15910 whole entry): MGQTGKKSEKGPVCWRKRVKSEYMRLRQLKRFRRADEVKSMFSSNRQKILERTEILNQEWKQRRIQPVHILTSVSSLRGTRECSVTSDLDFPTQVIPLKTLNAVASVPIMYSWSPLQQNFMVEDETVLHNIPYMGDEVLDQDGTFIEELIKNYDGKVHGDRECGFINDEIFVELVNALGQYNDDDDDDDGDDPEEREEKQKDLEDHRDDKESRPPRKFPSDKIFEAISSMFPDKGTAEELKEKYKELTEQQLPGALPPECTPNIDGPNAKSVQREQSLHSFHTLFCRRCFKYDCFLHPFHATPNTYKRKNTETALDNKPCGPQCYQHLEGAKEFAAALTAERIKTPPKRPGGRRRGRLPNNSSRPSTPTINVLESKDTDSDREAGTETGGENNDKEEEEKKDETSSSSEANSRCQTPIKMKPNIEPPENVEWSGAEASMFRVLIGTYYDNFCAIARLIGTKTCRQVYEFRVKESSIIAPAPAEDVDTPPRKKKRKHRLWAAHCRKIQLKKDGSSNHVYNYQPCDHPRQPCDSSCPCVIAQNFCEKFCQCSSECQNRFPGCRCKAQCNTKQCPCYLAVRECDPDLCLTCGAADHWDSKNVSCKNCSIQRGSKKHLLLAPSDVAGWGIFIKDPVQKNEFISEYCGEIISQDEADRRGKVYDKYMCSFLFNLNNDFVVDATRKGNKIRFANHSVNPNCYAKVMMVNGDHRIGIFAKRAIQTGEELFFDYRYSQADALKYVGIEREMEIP
- Sequence (O75530 whole entry partner): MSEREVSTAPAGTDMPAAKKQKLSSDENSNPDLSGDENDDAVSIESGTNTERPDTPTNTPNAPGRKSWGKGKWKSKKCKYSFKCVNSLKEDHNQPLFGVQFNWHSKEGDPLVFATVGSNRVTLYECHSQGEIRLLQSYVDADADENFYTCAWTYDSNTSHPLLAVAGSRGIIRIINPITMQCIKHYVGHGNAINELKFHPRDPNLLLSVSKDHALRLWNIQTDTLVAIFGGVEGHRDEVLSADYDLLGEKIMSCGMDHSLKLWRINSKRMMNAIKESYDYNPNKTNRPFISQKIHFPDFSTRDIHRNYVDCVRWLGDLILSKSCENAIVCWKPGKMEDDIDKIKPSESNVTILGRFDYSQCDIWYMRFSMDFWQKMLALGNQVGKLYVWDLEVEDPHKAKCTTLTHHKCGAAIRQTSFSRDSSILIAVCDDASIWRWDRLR
- Sequence (Q15022 whole entry partner): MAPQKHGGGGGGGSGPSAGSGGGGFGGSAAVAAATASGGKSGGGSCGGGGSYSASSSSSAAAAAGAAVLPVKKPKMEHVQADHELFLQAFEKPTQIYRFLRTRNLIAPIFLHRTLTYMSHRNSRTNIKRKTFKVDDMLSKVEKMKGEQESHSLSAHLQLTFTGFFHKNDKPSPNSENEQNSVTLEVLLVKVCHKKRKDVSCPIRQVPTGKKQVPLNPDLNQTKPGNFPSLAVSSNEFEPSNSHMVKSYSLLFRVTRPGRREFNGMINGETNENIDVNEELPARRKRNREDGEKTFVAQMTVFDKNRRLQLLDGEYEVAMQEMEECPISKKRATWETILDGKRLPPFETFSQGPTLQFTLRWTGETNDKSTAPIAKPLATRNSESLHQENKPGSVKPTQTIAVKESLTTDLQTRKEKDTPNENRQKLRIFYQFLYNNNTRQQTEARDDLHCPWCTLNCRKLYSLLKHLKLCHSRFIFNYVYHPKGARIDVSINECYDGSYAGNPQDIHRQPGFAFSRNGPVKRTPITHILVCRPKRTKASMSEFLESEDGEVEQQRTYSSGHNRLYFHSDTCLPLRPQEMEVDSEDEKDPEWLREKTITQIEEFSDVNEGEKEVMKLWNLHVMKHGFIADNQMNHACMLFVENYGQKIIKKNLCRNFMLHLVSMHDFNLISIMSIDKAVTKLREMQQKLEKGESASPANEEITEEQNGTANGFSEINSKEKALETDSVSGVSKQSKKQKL
- Assay Comment: EZH2 assay: rPRC2 with biotinylated oligonucleosome substrates and 3H SAM, FlashPlate scintillation counting, IC50
- Format: biochemical
- Run Parameters: rPRC2, biotinylated oligonucleosome substrates, 3H SAM; read-out: EZH2 IC50
Observation Type: IC50

- Molecule: "CC1(C)CC(NC(=O)c2ccc(Oc3cccc(C(N)=O)c3C#N)c(Cl)c2)CC(C)(C)N1"
  Assay Result: "5 to 20 µM"
- Molecule: "CNC(=O)CCc1cccc(Oc2ccc(C(=O)NC3CC(C)(C)NC(C)(C)C3)cc2Cl)c1C#N"
  Assay Result: "< 5 µM"
- Molecule: "CC1(C)CC(C(=O)Nc2ccc(Oc3ccccc3)cc2)CC(C)(C)N1"
  Assay Result: "> 80 µM"
- Molecule: "CC1(C)CC(NC(=O)c2ccc(Oc3cccc(-c4cnccn4)c3C#N)c(Cl)c2)CC(C)(C)N1"
  Assay Result: "< 5 µM"
- Molecule: "CC1(C)CC(NC(=O)c2ccc(COc3cccc(-c4cc[nH]c(=O)c4)c3)cc2)CC(C)(C)N1"
  Assay Result: "5 to 20 µM"
- Molecule: "CC1(C)CC(NC(=O)c2ccc(Oc3ccccc3C3CCCCC3)c(Cl)c2)CC(C)(C)N1"
  Assay Result: "5 to 20 µM"
- Molecule: "CC1(C)CC(NC(=O)c2ccc(Oc3ccccc3C3CCNCC3)c(Cl)c2)CC(C)(C)N1"
  Assay Result: "5 to 20 µM"
- Molecule: "O=C(NCCc1cccnc1)c1ccc(Oc2ccccc2)cc1"
  Assay Result: "> 80 µM"
- Molecule: "CC(Cc1cccc(Oc2ccc(C(=O)NC3CC(C)(C)NC(C)(C)C3)cc2Cl)c1C#N)C(N)=O (stereo not shown)"
  Assay Result: "< 5 µM"
- Molecule: "CN1CCC(NC(=O)c2ccc(Oc3ccccc3)cc2)CC1"
  Assay Result: "> 80 µM"
- Molecule: "CC1(C)CC(NC(=O)c2cc(F)c(Oc3ccccc3C#N)c(Br)c2)CC(C)(C)N1"
  Assay Result: "< 5 µM"
- Molecule: "CC1(C)CC(NC(=O)c2ccc(Oc3cccc(N4CCNCC4)c3)c(Cl)c2)CC(C)(C)N1"
  Assay Result: "20 to 80 µM"
- Molecule: "CC1(C)CC(NC(=O)c2ccc(-n3cccn3)c(Cl)c2)CC(C)(C)N1"
  Assay Result: "> 80 µM"
- Molecule: "Cc1ncccc1-c1ccccc1Oc1ccc(C(=O)NC2CC(C)(C)NC(C)(C)C2)cc1Cl"
  Assay Result: "5 to 20 µM"
- Molecule: "CC(c1ccccc1)c1ccc(C(=O)NC2CC(C)(C)NC(C)(C)C2)cc1 (stereo not shown)"
  Assay Result: "> 80 µM"
- Molecule: "CC1(C)CC(NC(=O)c2ccccc2Oc2ccccc2)CC(C)(C)N1"
  Assay Result: "> 80 µM"

###

- Assayed System: Y641N EZH2 (Homo sapiens, UniProt Q15910, Y641N)
- Sequence (Q15910 whole entry Y641N): as the sequence (Q15910 whole entry) above, with Y641N counted along it
- Sequence (O75530 whole entry partner): as the sequence (O75530 whole entry partner) above
- Sequence (Q15022 whole entry partner): as the sequence (Q15022 whole entry partner) above
- Assay Comment: Y641N EZH2 assay: performed as the EZH2 assay, using reconstituted H3K27Me2 oligonucleosomes as substrate
pIC50: −log10 of the molar value.
Observation Type: pIC50

- Compound: "CCc1cccc(Oc2ccc(C(=O)NC3CC(C)(C)NC(C)(C)C3)cc2Cl)c1-c1cccnc1"
  Assay Result: "4.10 to 4.70"
- Compound: "CC(=O)N1CCN(c2cccc(Oc3ccc(C(=O)NC4CC(C)(C)NC(C)(C)C4)cc3Cl)c2)CC1"
  Assay Result: "< 4.10"
- Compound: "CC1(C)CC(NC(=O)c2ccc(Oc3ccccc3C#N)c(Br)c2)CC(C)(C)N1"
  Assay Result: "4.70 to 5.30"
- Compound: "CC1(C)CC(NC(=O)c2ccc(Oc3cccc(NCC(N)=O)c3)c(Cl)c2)CC(C)(C)N1"
  Assay Result: "< 4.10"
- Compound: "CCc1cccc(Oc2ccc(C(=O)NC3CC(C)(C)NC(C)(C)C3)cc2Br)c1C#N"
  Assay Result: "> 5.30"
- Compound: "CCc1cccc(Oc2ccc(C(=O)NC3CC(C)(C)NC(C)(C)C3)cc2C)c1C#N"
  Assay Result: "> 5.30"
- Compound: "CC1(C)CC(NC(=O)c2ccc(Oc3cccc(N4CCNCC4)c3)c(Cl)c2)CC(C)(C)N1"
  Assay Result: "< 4.10"
- Compound: "Cc1cc(-c2cccc(Oc3ccc(C(=O)NC4CC(C)(C)NC(C)(C)C4)cc3Cl)c2C#N)ccn1"
  Assay Result: "> 5.30"
- Compound: "CC1(C)CC(NC(=O)c2ccc(Oc3cccc(-c4cn[nH]c4)c3C#N)c(F)c2)CC(C)(C)N1"
  Assay Result: "4.70 to 5.30"
- Compound: "CC(=O)N1CCC(c2cccc(Oc3ccc(C(=O)NC4CC(C)(C)NC(C)(C)C4)cc3)c2C#N)CC1"
  Assay Result: "4.10 to 4.70"
- Compound: "CC1(C)CC(NC(=O)c2ccc(N3CCC(c4ccccc4)C3)c(Cl)c2)CC(C)(C)N1 (stereo not drawn)"
  Assay Result: "< 4.10"
- Compound: "Cc1cc(-c2cccc(Oc3ccc(C(=O)NC4CC(C)(C)NC(C)(C)C4)cc3Cl)c2C#N)cc(C)n1"
  Assay Result: "4.70 to 5.30"
- Compound: "COc1cc(-c2cccc(Oc3ccc(C(=O)NC4CC(C)(C)NC(C)(C)C4)cc3Cl)c2C#N)cc(C)n1"
  Assay Result: "4.70 to 5.30"
- Compound: "CCOc1cc(-c2cccc(Oc3ccc(C(=O)NC4CC(C)(C)NC(C)(C)C4)cc3Cl)c2C#N)ccn1"
  Assay Result: "< 4.10"
- Compound: "CC1(C)CC(NC(=O)c2ccc(Cn3ccnc3)cc2)CC(C)(C)N1"
  Assay Result: "4.10 to 4.70"

###

This listing pairs compounds with measured pIC50.
- Assayed System: EZH2 (Homo sapiens)
- Assay Comment: EZH2 assay: rPRC2 with biotinylated oligonucleosome substrates and 3H SAM, FlashPlate scintillation counting, IC50
- Format: biochemical
- Run Parameters: rPRC2, biotinylated oligonucleosome substrates, 3H SAM; read-out: EZH2 IC50
pIC50: −log10 of the molar value.
Observation Type: pIC50

- Molecule: "CC1(C)CC(NC(=O)c2ccc(Oc3ccncc3C#N)c(Cl)c2)CC(C)(C)N1"
  Assay Result: "4.70 to 5.30"
- Molecule: "CC1(C)CC(NC(=O)c2ccc(Oc3ccccc3-c3cccs3)c(Cl)c2)CC(C)(C)N1"
  Assay Result: "> 5.30"
- Molecule: "CC1(C)CC(NC(=O)c2ccc(Oc3cccc(CC(N)=O)c3C#N)c(Cl)c2)CC(C)(C)N1"
  Assay Result: "> 5.30"
- Molecule: "CC1(C)CC(NC(=O)c2ccc(Oc3ccccc3C#N)c(COc3ccccc3)c2)CC(C)(C)N1"
  Assay Result: "> 5.30"

###

- Assayed System: UniProt:Q15910
- Assay Comment: EZH2 assay: rPRC2 with biotinylated oligonucleosome substrates and 3H SAM, FlashPlate scintillation counting, IC50
- Format: biochemical
- Run Parameters: rPRC2, biotinylated oligonucleosome substrates, 3H SAM; read-out: EZH2 IC50
pIC50: −log10 of the molar value.
Observation Type: pIC50

- Molecule: "CCOc1cc(-c2cccc(Oc3ccc(C(=O)NC4CC(C)(C)NC(C)(C)C4)cc3Cl)c2C#N)ccn1"
  Assay Result: "> 5.30"
- Molecule: "CC1(C)CC(NC(=O)c2ccc(Oc3ncccc3F)cc2)CC(C)(C)N1"
  Assay Result: "< 4.10"
- Molecule: "CC1(C)CC(NC(=O)c2ccc(COc3cccc(-c4ccc5[nH]ccc5c4)c3)cc2)CC(C)(C)N1"
  Assay Result: "4.10 to 4.70"
- Molecule: "CC1(C)CC(NC(=O)c2ccc(COCc3ccccc3)cc2)CC(C)(C)N1"
  Assay Result: "4.10 to 4.70"
- Molecule: "Cc1cc(C(=O)NC2CC(C)(C)NC(C)(C)C2)cc(C)c1Oc1ccccc1C#N"
  Assay Result: "4.10 to 4.70"
- Molecule: "CC1(C)CC(NC(=O)c2ccc(Oc3cccc(C(C)(C)C#N)c3)c(Cl)c2)CC(C)(C)N1"
  Assay Result: "4.10 to 4.70"
- Molecule: "CC1(C)CC(NC(=O)c2ccc(Oc3cccc(-c4cnn(CC(N)=O)c4)c3C#N)c(Cl)c2)CC(C)(C)N1"
  Assay Result: "> 5.30"
- Molecule: "CN(c1ccccc1)c1ccc(C(=O)NC2CC(C)(C)NC(C)(C)C2)cc1"
  Assay Result: "< 4.10"
- Molecule: "COc1cc(Oc2ccccc2)ccc1C(=O)NC1CC(C)(C)NC(C)(C)C1"
  Assay Result: "< 4.10"
- Molecule: "CC1(C)CC(NC(=O)c2ccc(Oc3cccc(Cl)c3C#N)c(Cl)c2)CC(C)(C)N1"
  Assay Result: "> 5.30"
- Molecule: "COc1ccccc1Oc1ccc(C(=O)NC2CC(C)(C)NC(C)(C)C2)cc1"
  Assay Result: "4.10 to 4.70"
- Molecule: "CC1(C)CC(NC(=O)c2cccc(COc3cccc(Br)c3)c2)CC(C)(C)N1"
  Assay Result: "< 4.10"
- Molecule: "CC1(C)CC(NC(=O)c2ccc(Oc3cccc4cnc(N)cc34)cc2)CC(C)(C)N1"
  Assay Result: "4.70 to 5.30"
- Molecule: "Cc1cccc(C)c1OCc1ccc(C(=O)NC2CC(C)(C)NC(C)(C)C2)cc1"
  Assay Result: "4.10 to 4.70"
- Molecule: "CC1(C)CC(NC(=O)c2ccc(Oc3ccccc3)cc2O)CC(C)(C)N1"
  Assay Result: "< 4.10"
- Molecule: "CCCc1cc(C(=O)NC2CC(C)(C)NC(C)(C)C2)ccc1Oc1ccccc1C#N"
  Assay Result: "> 5.30"
